molecular target: HLA-A*32:01; assay: IEDB peptide-MHC binding, purified MHC/competitive/radioactivity; filed as Kd, often an IC50 or EC50 that approximates it; bounds were set here for any values at or beyond the usual limits of such assays; details: source organism: Dengue virus 3 Martinique/1243/1999
measured_property: pKd
Scale: negative log10 of molar concentration, which is what pKd denotes.

Exercise: Consider the sequence KTWGKAKIV and give its recorded pKd.
Solution: 5.90

---

target: HLA-A*02:03; assay: IEDB peptide-MHC binding, purified MHC/competitive/radioactivity; filed as Kd, often an IC50 or EC50 that approximates it; bounds were set here for any values at or beyond the usual limits of such assays; conditions: source organism: Trypanosoma cruzi
measured_property: Kd (nM)
Quick note: give the figure in nM, leave out the unit.

Exercise: Note Kd for the sequence shown: LVGLWGAAAL
Solution: 95.9
